- TESTED_TARGET: Fe(3+)-Zn(2+) purple acid phosphatase (Phaseolus vulgaris) (UniProt P80366)
- Sequence (P80366 whole entry): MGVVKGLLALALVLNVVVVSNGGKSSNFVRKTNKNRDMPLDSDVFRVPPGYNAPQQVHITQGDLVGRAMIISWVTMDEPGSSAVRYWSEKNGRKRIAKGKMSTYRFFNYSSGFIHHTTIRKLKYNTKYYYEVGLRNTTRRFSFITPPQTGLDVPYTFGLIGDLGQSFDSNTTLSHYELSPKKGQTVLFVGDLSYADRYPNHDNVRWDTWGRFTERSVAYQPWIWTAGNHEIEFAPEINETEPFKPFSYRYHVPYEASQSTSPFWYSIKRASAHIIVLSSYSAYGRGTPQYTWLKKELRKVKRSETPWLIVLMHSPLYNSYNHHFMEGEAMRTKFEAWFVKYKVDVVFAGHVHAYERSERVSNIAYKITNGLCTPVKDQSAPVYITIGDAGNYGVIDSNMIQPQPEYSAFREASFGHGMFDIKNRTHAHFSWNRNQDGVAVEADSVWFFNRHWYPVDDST
- TEST_METHOD_NOTES: Competitive inhibition of red kidney bean PAP using pNPP as substrate by UV-vis spectrophotometric analysis
Exercise: state measured Kic for each of the compounds provided.
Answers are plain numbers, in µM.

Batch request: Kic for each of the following compounds.
1. Cc1ccc(Cn2cc(C(=O)O)nn2)cc1
2. O=C(O)c1cn(Cc2ccccc2Cl)nn1
3. O=C(O)c1cn(Cc2cccc3ccccc23)nn1
4. O=C(O)c1cn(Cc2ccc(Cl)cc2)nn1

[A]
951
438
2280
1070

---

Exercise: state measured Kiuc for each of the compounds provided.
- Organism: Sus scrofa
- TEST_METHOD_NOTES: Uncompetitive inhibition of fully reduced pig PAP using pNPP as substrate by UV-vis spectrophotometric analysis
Numbers only, in µM.

COc1ccc(Cn2cc(C(=O)O)nn2)cc1    48
O=C(O)c1cn(Cc2cccc3ccccc23)nn1    184
Cc1ccc(Cn2cc(C(=O)O)nn2)cc1    76
O=C(O)c1cn(Cc2ccc(Cl)cc2)nn1    103
O=C(O)c1cn(Cc2ccccc2Cl)nn1    276

# context switch: different compound, same Kiuc
[Q] Dear colleague, please send me the reported Kiuc for O=C(O)c1cn(Cc2ccccc2)nn1 when you can.
[A] 23
